System: HOP-62 NSCLC
Test: NCI-60 one-dose screen, 48 h (100 = growth as untreated, 0 = no growth, -100 = all killed)
Settings: 10 µM unless noted
The panel holds about 83,000 compounds, 20% with a hit somewhere; the sample as a whole holds those more often.
quantity measured: growth (%)
Field: numeric (%). Do not append units.

Need growth, item C=C(C)[C@@H]1CC[C@]2(C(=O)N3CCN(C)CC3)CC[C@]3(C)[C@H](CC[C@@H]4[C@@]5(C)C/C(=C/c6ccc(C(F)(F)F)cc6)C(=O)C(C)(C)[C@@H]5CC[C@]43C)[C@@H]12
96.6

Which growth is reported for this compound? COc1ccc(-c2cc(/C=C/C(=O)c3ccc(N)cc3)[nH]n2)cc1
15.4

// returns reported growth for input CC(=O)OC[C@]12CC[C@@H](/C(C)=N/O)[C@@H]1[C@H]1CC[C@@H]3[C@@]4(C)CCCNC(C)(C)[C@@H]4CC[C@@]3(C)[C@]1(C)CC2
85.2

Please report the recorded growth for O=C(NCN1C(=O)c2cccc3cccc(c23)C1=O)N1CCC(Cc2ccccc2)CC1 .
94

Would you kindly share the measured growth for CC1(C)NC2=C(C(Nc3cccnc3)N1)C(c1ccc([N+](=O)[O-])cc1)C(C(=O)c1ccc(N=[N+]=[N-])cc1)O2 (stereo not drawn) ?
103

What growth value was documented for this compound, CC(=O)NC1=C(C#N)C(c2ccccc2Cl)c2c(ccc3ccccc23)O1 (stereo not drawn) ?
59.2

I have this compound here, Cn1c2c(c3ccc(Cl)cc31)-n1cccc1C2=O , and I need its recorded growth.
107

growth for C[N+](C)(CCCCCC[N+](C)(C)C1c2ccccc2-c2ccccc21)C1c2ccccc2-c2ccccc21 ?
113
